Biological target: MEK1 activated ERK1 (Homo sapiens (Human))
Assay: Omnia continuous-read kinase assay for potency against MEK1 activated ERK1
Assay type: biochemical
Conditions: MEK1 activated ERK1, WT, ATP at KM
Text: Omnia Assay Protocol for Potency Assessment Against MEK1 Activated ERK1: The protocol below describes continuous-read kinase assays to measure potency of compounds against activated ERK1 enzyme. The mechanics of the assay platform are best described by the vendor (Invitrogen, Carlsbad, Calif.) on their website at the following URL: invitrogen.com/site/us/en/home.html. […]
Listed molecules paired with reported IC50

molecule	IC50
C=CC(=O)Nc1cc(OC)ccc1Nc1nc(N[C@H]2CCCN(C(=O)CO)C2)ncc1C(F)(F)F [Compound I-64]	< 100 nM
C=CC(=O)Nc1ccccc1Nc1nc(N[C@@H]2CCC[C@H](C(N)=O)C2)ncc1Cl (racemic) [Compound I-102]	< 100 nM
C=CC(=O)Nc1ccccc1Nc1nc(N[C@H]2CCCN(C(=O)CO)C2)ncc1C(F)(F)F [Compound I-15]	< 100 nM
C=CC(=O)Nc1cc(C)ccc1Nc1nc(Nc2cc(O)ncc2C)ncc1C(F)(F)F [Compound I-365]	> 1000 nM
C=CC(=O)Nc1cc(C)ccc1Nc1nc(Nc2cnnc(Cl)c2)ncc1C(F)(F)F [Compound I-331]	> 1000 nM
C=CC(=O)Nc1ccccc1Nc1nc(Nc2cncc(OC)c2)ncc1C(F)(F)F [Compound I-86]	< 100 nM
C=CC(=O)N[C@H]1CCC[C@@H]1Nc1nc(Nc2cc(C(N)=O)ccc2C)ncc1Cl [Compound I-215]	> 1000 nM
C=CC(=O)Nc1cc(C)ccc1Nc1nc(Nc2nc(O)ncc2C)ncc1C(F)(F)F [Compound I-364]	< 100 nM

----------
target: MEK1 activated ERK1 (Homo sapiens (Human)); experiment: Omnia continuous-read kinase assay for potency against MEK1 activated ERK1; assay type: biochemical; conditions: MEK1 activated ERK1, WT, ATP at KM
Collected IC50 values appear next to each entry.

molecule	IC50
C=CC(=O)N[C@@H]1CCCC[C@@H]1Nc1nc(Nc2cc(C(N)=O)ccc2C)ncc1Cl	> 1000 nM
CC(C)=CC(=O)c1ccccc1Oc1nc(Nc2ccc(F)cc2C)ncc1C(N)=O	> 1000 nM
C=CC(=O)Nc1cc(C)ccc1Nc1nc(N[C@H]2CCCN(C(=O)CC)C2)ncc1C(F)(F)F	< 100 nM
C/C=C/S(=O)(=O)Nc1cc(F)ccc1Nc1nc(N[C@H]2CCCN(C(=O)CO)C2)ncc1C(F)(F)F	< 100 nM
C=CC(=O)N[C@H]1CCCC1Nc1nc(N[C@H]2CCCN(C(C)=O)C2)ncc1C(F)(F)F (stereo in doubt)	> 1000 nM
C=CC(=O)Nc1cc(OC)ccc1Nc1nc(Nc2ccc(N3CC[C@H](O)C3)cc2C#N)ncc1Cl	> 1000 nM
C=CC(=O)Nc1cc(Cl)ccc1Nc1nc(Nc2cc(OC)ncc2C)ncc1Cl	< 100 nM
C=CC(=O)Nc1ccccc1Nc1nc(N[C@H]2CCCN(C(=O)C(C)C)C2)ncc1Cl	< 100 nM
C=CC(=O)Nc1cc(OC)ccc1Nc1nc(Nc2cc(OC)nc(N3CCN(C(C)=O)CC3)c2)ncc1C(F)(F)F	< 100 nM
C=CC(=O)Nc1ccccc1Nc1nc(N[C@H]2CCCN(S(C)(=O)=O)C2)ncc1Cl	< 100 nM
C=CC(=O)Nc1cc(C)ccc1Nc1nc(N[C@H]2CCCN(C(=O)c3ccccc3)C2)ncc1C(F)(F)F	> 1000 nM
C=CC(=O)Nc1ccccc1Nc1nc(N[C@H]2CCCN(C(=O)CC)C2)ncc1Cl	< 100 nM
C=CC(=O)Nc1ccccc1Nc1nc(Nc2ccc(N3CCC[C@H]3CO)cc2C#N)ncc1Cl [Compound I-172]	> 1000 nM
C=CC(=O)NCc1ccccc1Nc1nc(Nc2cc(C(N)=O)ccc2C)ncc1Cl	> 1000 nM
C=CC(=O)Nc1ccccc1Nc1nc(Nc2c[nH]nc2C)ncc1C(F)(F)F	> 1000 nM
C=CC(=O)Nc1ccccc1Nc1nc(Nc2ccc(N3CCC[C@H]3CO)cc2C#N)ncc1Cl [Compound I-160]	> 1000 nM
C=CC(=O)Nc1cc(OC)ccc1Nc1nc(Nc2cc(OC)nc(N3CCN(C(C)=O)CC3)c2)ncc1Cl	< 100 nM
C=CC(=O)Nc1ccccc1Nc1nc(N[C@@H]2CCN(C(=O)OC)C2)ncc1C(F)(F)F	> 1000 nM
C/C=C/C(=O)Nc1ccccc1Nc1nc(Nc2cc(C(N)=O)ccc2C)ncc1Cl	> 1000 nM
Cc1ccc(C(N)=O)cc1Nc1ncc(Cl)c(Nc2ccccc2NC(=O)/C=C/CN(C)C)n1	> 1000 nM
C=CC(=O)Nc1ccccc1Nc1nc(Nc2cc(OC)nc(OC)c2)ncc1C(F)(F)F	< 100 nM
C=CC(=O)Nc1cc(OC)ccc1Oc1nc(Nc2ccc(N3CCC[C@@H]3C(N)=O)cc2OC)ncc1C(N)=O	> 1000 nM
CC#CC(=O)Nc1ccccc1Nc1nc(N[C@H]2CCCN(C(=O)CO)C2)ncc1C(F)(F)F	> 1000 nM
C=CC(=O)Nc1ccccc1Oc1ccnc(Nc2ccc(N3CCN(C(C)=O)CC3)cc2OC)n1	> 1000 nM
C=CC(=O)Nc1cc(C)ccc1Nc1nc(N[C@@H]2CCCN(S(=O)(=O)C=C)C2)ncc1C(F)(F)F	> 1000 nM
C=CC(=O)Nc1cc(OC)ccc1Nc1nc(Nc2ccc(N3CCNCC3)cc2C#N)ncc1Cl	> 1000 nM
C=CC(=O)Nc1cc(C)ccc1Nc1nc(Nc2cc(OC)nc(N3CCC3)c2)ncc1C(F)(F)F	> 1000 nM
C=C(C)S(=O)(=O)Nc1cc(C)ccc1Nc1nc(Nc2cc(C(C)=O)ccc2C)ncc1C(F)(F)F	< 100 nM
CC(C)=CC(=O)c1ccccc1Oc1nc(Nc2cc(C(N)=O)ccc2C)ncc1Cl	> 1000 nM
C=CC(=O)Nc1cc(Cl)ccc1Nc1nc(Nc2cc(OC)ncc2C)ncc1C(F)(F)F	< 100 nM
C=CC(=O)Nc1ccccc1Nc1nc(NC2CCN(C=O)CC2)ncc1Cl	< 100 nM

----------
target: MEK1 activated ERK1 (Homo sapiens (Human)); assay: Omnia continuous-read kinase assay for potency against MEK1 activated ERK1; type: biochemical; conditions: MEK1 activated ERK1, WT, ATP at KM
Listed here are molecules together with their documented IC50.
endpoint: IC50

smiles-structure	endpoint	measurement
C=CC(=O)Nc1ccccc1Nc1nc(Nc2ccc(N3CCC[C@@H]3CO)cc2C#N)ncc1Cl	IC50	> 1000 nM
CCC(=O)Nc1ccccc1Nc1nc(Nc2ccc(N(CC)C(C)=O)cc2C#N)ncc1Cl	IC50	> 1000 nM
C=CC(=O)Nc1cc(C)ccc1Nc1nc(Nc2nc(OC)ccc2Cl)ncc1C(F)(F)F	IC50	> 1000 nM
C=CC(=O)Nc1ccccc1Nc1nc(Nc2ccc(NC(=O)OC)cc2OC)ncc1Cl	IC50	> 1000 nM
C=CC(=O)Nc1cc(OC)ccc1Nc1nc(Nc2ccc(N3CCN(C(=O)OC(C)(C)C)CC3)cc2OC)ncc1Cl	IC50	> 1000 nM
C=CC(=O)Nc1cc(OC)ccc1Nc1nc(Nc2cc(OC)ncc2C)ncc1Cl	IC50	< 100 nM
C=CC(=O)Nc1cc(C)ccc1Nc1nc(N[C@H]2CCCN(C(=O)CF)C2)ncc1C(F)(F)F	IC50	< 100 nM
C=CC(=O)Nc1ccccc1Nc1nc(N[C@H]2CCCN(C(C)=O)C2)ncc1C(F)(F)F	IC50	< 100 nM

----------
Reported IC50 values for the following molecules.
target: MEK1 activated ERK1 (Homo sapiens (Human), UniProt P27361); assay: Omnia continuous-read kinase assay for potency against MEK1 activated ERK1; assay type: biochemical; settings: MEK1 activated ERK1, WT, ATP at KM
Sequence (P27361 whole entry): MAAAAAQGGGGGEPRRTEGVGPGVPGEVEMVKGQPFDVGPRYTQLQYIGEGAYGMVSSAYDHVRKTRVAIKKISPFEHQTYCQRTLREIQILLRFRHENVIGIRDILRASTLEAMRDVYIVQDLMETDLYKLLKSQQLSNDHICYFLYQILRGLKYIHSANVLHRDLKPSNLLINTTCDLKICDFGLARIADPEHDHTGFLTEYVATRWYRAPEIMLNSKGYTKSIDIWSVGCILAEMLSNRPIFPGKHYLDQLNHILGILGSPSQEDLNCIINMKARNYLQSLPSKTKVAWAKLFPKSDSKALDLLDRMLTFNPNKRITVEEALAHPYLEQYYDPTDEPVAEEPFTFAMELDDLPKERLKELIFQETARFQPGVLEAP

smiles-structure	IC50
CCC(=O)Nc1ccccc1Nc1nc(N[C@H]2CCCN(C(=O)CO)C2)ncc1C(F)(F)F	< 100 nM
C=CC(=O)Nc1ccccc1Nc1nc(Nc2cc(S(N)(=O)=O)ccc2C)ncc1Cl	< 100 nM
C=CC(=O)Nc1cc(C)ccc1Nc1nc(Nc2cc(OC)nc(N3CCN(C(C)=O)CC3)c2)ncc1Cl	< 100 nM
C=CC(=O)Nc1ccccc1Nc1nc(Nc2ccc(N(CCNC(=O)OC(C)(C)C)C(C)=O)cc2C(F)(F)F)ncc1Cl	> 1000 nM
C=C(C)C(=O)Nc1ccccc1Nc1nc(Nc2cc(C(N)=O)ccc2C)ncc1Cl	> 1000 nM
C=CC(=O)Nc1cc(C)ccc1Nc1nc(N[C@@H]2CCN(S(=O)(=O)C=C)C2)ncc1C(F)(F)F	> 1000 nM
C=CC(=O)N(C)c1ccccc1Nc1nc(Nc2cc(C(=O)NOCCO)ccc2C#N)ncc1Cl	> 1000 nM
C=CC(=O)Nc1ccccc1Nc1nc(Nc2cc(C(N)=O)ccc2C#N)ncc1C(F)(F)F	< 100 nM
C=CC(=O)Nc1ccccc1Nc1nc(N[C@H]2CCCN(C(=O)CCCC(=O)NCCCOCCOCCOCCCNC(=O)CCCC[C@@H]3SC[C@@H]4NC(=O)N[C@@H]43)C2)ncc1Cl	> 1000 nM
C=CC(=O)Nc1ccccc1Nc1nc(Nc2cc(OC)nc(N3CCN(C)CC3)c2)ncc1C(F)(F)F	< 100 nM
C=CC(=O)Nc1cc(C)ccc1Nc1nc(Nc2cc(OC)nc(N3CC(O)C3)c2)ncc1C(F)(F)F	< 100 nM
C=CC(=O)Nc1ccccc1Nc1nc(Nc2cc(OC)nc(N3CCN(S(C)(=O)=O)CC3)c2)ncc1C(F)(F)F	> 1000 nM
CCC(=O)Nc1ccccc1Nc1nc(Nc2ccc3c(c2)CCCC(=O)N3CCCN)ncc1Cl	< 100 nM
C=CC(=O)Nc1ccccc1Nc1nc(Nc2cc(NCCOC)nc(OC)c2)ncc1C(F)(F)F	< 100 nM
C=CC(=O)Nc1ccccc1Nc1nc(Nc2cc(OC)ncc2C)ncc1Cl	< 100 nM
C=CC(=O)Nc1ccccc1Nc1nc(N[C@H]2CCCN(C(N)=O)C2)ncc1C(F)(F)F	< 100 nM
C=CC(=O)Nc1ccccc1Nc1nc(Nc2cc(C(=O)NOC)ccc2C)ncc1C(F)(F)F	< 100 nM
C=CC(=O)Nc1ccccc1Nc1nc(N[C@@H]2CCC[C@H](C(N)=O)C2)ncc1C(F)(F)F	< 100 nM
CCC(=O)Nc1cc(C)ccc1Nc1nc(Nc2cc(OC)ncc2C)ncc1C(F)(F)F	> 1000 nM
C=CC(=O)Nc1ccccc1Oc1nc(Nc2ccc(N3CCN(C(C)=O)CC3)cc2OC)ncc1Cl	> 1000 nM
C=CC(=O)Nc1ccccc1Nc1nc(Nc2ccc(F)cc2C#N)ncc1Cl	< 100 nM
C=C(C)S(=O)(=O)Nc1ccccc1Nc1nc(N[C@H]2CCCN(C(=O)CO)C2)ncc1C(F)(F)F	< 100 nM
C=CC(=O)Nc1cc(C)ccc1Nc1nc(Nc2cc(OC)ncc2C)ncc1Cl	< 100 nM
CCC(=O)Nc1ccccc1Nc1nc(N[C@H]2CCCN(C(=O)CO)C2)ncc1Cl	< 100 nM
C=CC(=O)Nc1ccccc1Nc1nc(Nc2ccc(NC(C)=O)cc2C(F)(F)F)ncc1Cl	> 1000 nM
CC(C)=CC(=O)c1ccccc1Oc1nc(Nc2cc(C(N)=O)ccc2C)ncc1C(N)=O	> 1000 nM
C=C(C)S(=O)(=O)Nc1cc(C)ccc1Nc1nc(N[C@H]2CCCN(C(=O)CO)C2)ncc1C(F)(F)F	< 100 nM
C=CC(=O)Nc1cc(C)ccc1Nc1nc(Nc2nc(OC)ncc2C)ncc1C(F)(F)F	101 to 500 nM
C=CC(=O)Nc1cc(C)ccc1Nc1nc(Nc2cc(OC)ncn2)ncc1C(F)(F)F	> 1000 nM
C=CC(=O)Nc1cc(F)ccc1Nc1nc(Nc2ccc(F)cc2C#N)ncc1Cl	< 100 nM
